Would you kindly list cytotoxicity at 70.5 h for each of these compounds?
# assayExplanation: Human HepG2 cell viability assay in 384 well format
# Format: toxicity, cell-based
# Parameters: dose 125 nL, time 70.5 hour; concentration not given beside the values
# reportedConditions: HepG2 cells, read-out: Inhibition
Write the answer as a number in %, unit excluded.

I would be grateful if you could share the reported cytotoxicity at 70.5 h for CCOc1c(F)cccc1C(=O)N(CC)C(C)c1cccnc1 (stereo not drawn) .
-6.68

Let us now turn to CCCn1ncc(-c2ccnc(NC3CCSC3)n2)c1C (stereo not drawn)
-12.7

Now the same for Cc1nc(CN2CCCC(CCc3ccccc3C)C2)c[nH]1 (stereo not drawn)
19

What about CC(CCSc1ccccc1)N1CCCN(C(N)=O)CC1 (stereo not drawn) ?
28.8

Next record, please: `COc1cccc(OCC(=O)NS(=O)(=O)c2cccnc2)c1`
-3.41

And for CC(=O)N1CCCC1C(=O)NCCOc1cccc(F)c1 (stereo not drawn) ?
-12.8

Same lookup for `CC(C)c1noc(CN2CCC(c3nc4cc(Cl)ccc4o3)CC2)n1` , please.
-19.1

Could you do the same for `CC(C)(C)c1nnc(NCc2ccc(F)cc2)o1` , please?
-2.71

Subsequent entry: CCNC(=O)C1CCN(c2cc(-c3ccccc3F)nc3ccnn23)C1 (stereo not drawn)
14.5

Now consider COCC1c2nnn(C)c2CCN1C(=O)c1ccc(OC)c(F)c1 (stereo not drawn) and answer again.
-7.3

Next compound up: Cc1nn(C)c(Cl)c1C1CCCN1C(=O)c1ccnc(N(C)C)c1 (stereo not drawn)
-2.23

What about Cc1nc(C(NC(=O)CN(C)C(C)C)c2ccccc2F)no1 (stereo not drawn) ?
-4.07

Consider next the compound `O=C(NCCC(=O)N1CCCc2ccccc21)c1ccc(F)cc1F` in the same way.
-14.2

One more compound: c1cn2c(n1)CN(CC1CC1)CC(CN1CCOCC1)C2 (stereo not drawn)
-7.21

Item: `CCc1noc(C)c1C(=O)N1CCCN(Cc2cscn2)CC1`
-10.2

// repeat for `O=C(Nc1cccc(CNCc2cccnc2)c1)C1CCCC1` and report
-4.79

How about `CC[C@@H]1N(CC2CC2)CCC[C@]12CCC(=O)N2CCOC` ?
-9.87

Similarly, CC(C)n1ccc(C(=O)NCC(O)c2c(Cl)cccc2Cl)n1 (stereo not drawn) ?
65.8

Now consider COCC(=O)NC1CC2(CCN(Cc3ccco3)CC2)c2ccccc21 (stereo not drawn) .
-12.8

How about `COc1c(CNC2CCN(C(=O)C3CC3)CC2)c(C(C)C)nn1C` ?
0.393

Lookup `CCCc1nnc2sc(C3CCS(=O)(=O)CC3)nn12`
-10.2

COCCCC1(CO)CCCN(CCc2ccccc2)C1 (stereo not drawn) ?
-1.1

Next compound up: `CCS(=O)(=O)N1CCc2cc(C(=O)N(C)C)c(NCC3CC3)nc2CC1`
0.785

Same thing, different compound: CN(C)Cc1ccnc(C2CCCN2Cc2cccc(F)c2F)n1 (stereo not drawn)
-2.17

Now the same for O=C(c1ccc[nH]1)N1CCOCC2(C1)CN(c1ccccc1)C(=O)CO2 (stereo not drawn)
-9.1

CC(C)NC1CCc2[nH]c(=O)ccc2C1 (stereo not drawn) ?
-3.78

Would you mind doing CNC(=O)C1CN(C(=O)COc2ccccc2)Cc2cn(C)nc21 (stereo not drawn) as well?
-3.29

Now the same for `CC(C)(C)OC(=O)NCCNC(=O)c1ccc2cc[nH]c2c1`
0.498

`CN(C)C(=O)COC[C@@]12CCC[C@@H]1CN(C1CCCC1)C2` , same question.
-1.63

Same read-out for COCC(=O)NC(C)Cc1ccc(Br)cc1 (stereo not drawn) ?
2.28

Similarly, `Cc1ccc(C(=O)N2C[C@@H]3COC[C@]3(COCc3cccnc3)C2)cn1` ?
-6.21

Same question for `O=C(NCCN1CCCCCC1)c1coc(COc2ccc(F)cc2)n1` please.
8.68

What do we get for `COc1cccc(F)c1-c1c[nH]c(C)n1` ?
11.7

One more compound: Cc1cc(C)n(CC2CCCCN2CC(=O)Nc2ccncc2)n1 (stereo not drawn)
-0.378

Same again, this time with CC(C)(C)C(O)CN1CCN(C(=O)c2ccc3c(c2)COC3)CC1 (stereo not drawn)
10.4

What do you have for `O=C(Nc1ccccc1)[C@H]1O[C@H](CCN2CCNCC2)CC[C@@H]1O` ?
0.346

Can you handle `O=C(NCCc1coc(-c2ccc(F)cc2)n1)NC1CC1` next?
-3.96

# repeat for Cc1nn(C)c2nc(NCCCN3CCCC(CO)C3)sc12 (stereo not drawn)
-9.15

Continue with `N[C@@H]1c2ccccc2C2(CCN(C(=O)c3ccccc3O)CC2)[C@H]1O`
-6.11

Item: Cn1ccnc1CN1CCC(CNS(=O)(=O)c2cccnc2)C1 (stereo not drawn)
7.54

Could you do the same for `CCCn1cc(-c2cc(C(=O)N(C)C)c3cccc(C)c3n2)cn1` , please?
-7.56

Next compound up: Cc1cccc(C)c1NC(=O)CN(C)C(C)c1nc(C(C)(C)C)no1 (stereo not drawn)
-88.9

Please give the result for `Cc1nn(C)cc1CN1CCc2nc3sccc3c(=O)n2CC1` too.
-9.47

====

Record form. Attribute: cytotoxicity at 70.5 h. Fill in for each entry.
# assayExplanation: Human HepG2 cell viability assay in 384 well format
# Type: toxicity, cell-based
# Parameters: dose 125 nL, time 70.5 hour; concentration not given beside the values
# reportedConditions: HepG2 cells, read-out: Inhibition
The reply should be a number in %, with the unit left off.

So what does the record say about cytotoxicity at 70.5 h for CC(Cn1cccn1)NC(=O)c1cccs1 (centres undefined) ?
-9.89

Item: O=C(CC1CN(Cc2ccccc2)CCO1)NCCN1CCOCC1 (centres undefined)
37.5

How about this compound: `CC(C)CNC(=O)c1cccc(CN2CCc3c(ncn3C)C2)c1`
-13.6

// same read-out, input: Cn1ncc2ccc(C3CCCN(Cc4cccs4)C3)nc21 (centres undefined)
-0.364

Do the same for `O=C(NCc1ccccn1)[C@@H]1COC[C@H]2CN(C3CCC3)C[C@H]21` please
-13.4

Entry `CCN(Cc1cccc(NC(=O)COCCOC)c1)C(C)=O` please
1.86

Would you mind doing Cc1cn2c(n1)CCC(NC(=O)CCOc1ccccc1F)C2 (centres undefined) as well?
-5.57

Now the compound CNc1nc2c(s1)C(c1c(F)cccc1Cl)CC(=O)N2 (centres undefined)
-6.14

Now consider COCCOC1CCN(C(C(=O)O)c2ccc(OC)c(F)c2)CC1 (centres undefined) .
-6

Param item: Cc1cnn(CC2CN(CC(=O)Nc3nnc(C)s3)CCO2)c1 (centres undefined)
-9.05

Request: CCOCCC(=O)NCC1CCCO1 (centres undefined)
-6.72

Queued: `COCCOCC(=O)N(C)Cc1ccc(OCc2cccs2)cc1`
-6.68

Try the compound `Cc1ncccc1CNc1ccc(OCCO)nc1`
-6.19

Here is the next compound: `CC(C)C(=O)N1CCC[C@]2(C(=O)N(C)C)CN(c3ccccn3)C[C@@H]2C1`
11.4

Entry `COCCn1ccc(=O)c(OCC(=O)Nc2ccccc2)c1C` please
-10.1

Continue with `Cc1cc(C)n(CCCN(C)c2cc(C3CC3)ncn2)n1`
-7.51

Query `Cc1noc(CCCC(=O)NCCc2cc3ccccc3[nH]2)n1` next
-6.92

Thanks! And `Cc1sc(Oc2ccccc2Cl)nc1C(=O)O` ?
7.28

Okay, and `CCc1nnc(NC(=O)N(CCOC)Cc2ccc(C)o2)s1` ?
14.4

====

# assayExplanation: Human HepG2 cell viability assay in 384 well format
# Type: toxicity, cell-based
# Design: dose 125 nL, time 70.5 hour; concentration not given beside the values
# reportedConditions: HepG2 cells, read-out: Inhibition
Consider the following compounds; for each one, report its cytotoxicity at 70.5 h.
Write down the numeric answer in % and omit the unit.

Name the recorded cytotoxicity at 70.5 h for CCCn1cc(CN2CCOCC2c2[nH]ncc2C)cn1 (stereo not given) .
-2.99

Another compound to check: CC(NC(=O)Nc1cccnc1N1CCCC1)c1ccn(C)c1 (stereo not given)
25

Continue with c1ccc2ncc(CC3CNCCOC3)cc2c1 (stereo not given)
-0.7

Can you handle Cc1nc(C)n(CC2CCCN2CCOc2ccccc2C#N)n1 (stereo not given) next?
-13.6

Proceed to Cc1nc(-c2cccnc2)ncc1C(=O)N1CCCC(N(C)C)CC1 (stereo not given)
-20

====

# assayExplanation: Human HepG2 cell viability assay in 384 well format
# Assay type: toxicity, cell-based
# Design: dose 125 nL, time 70.5 hour; concentration not given beside the values
# reportedConditions: HepG2 cells, read-out: Inhibition
Please respond with reported cytotoxicity at 70.5 h for every item in the list.
Please make sure the unit comes right after the number.

Look at this compound and give its reported cytotoxicity at 70.5 h. `Fc1cnc(N2CCO[C@H]3CN(CC4CCC4)C[C@H]32)nc1`
-0.999%

Same read-out for `O=C(NCCCNc1ccc(C(F)(F)F)cn1)c1ccc(F)cc1F` ?
-4.42%

# iterate: Cc1ccc(CNCC2Cn3nncc3CO2)o1 (stereo unspecified)
-3.52%

// next record `Cc1ccc(CN2CCc3onc(C(=O)N4CCCC4)c3C2)o1`
-6.06%

Let us now turn to CC(=O)N1CCCC1c1nccc(C)n1 (stereo unspecified)
-9.48%

Please answer likewise for `O=C(c1cn2ccsc2n1)N1CCN(CC2CC2)[C@@H]2CS(=O)(=O)C[C@@H]21`
-10.5%

Again, but for `C=C(C)COCCNC(=O)N1CCc2c(cccc2OC)C1`
7.17%

Then this compound: `O=C(CCCc1cn[nH]c1)N1C[C@H](CO)C[C@H](CN2CCCC2)C1`
-5.76%

Consider next the compound `NC(=O)CN1CCCN(C(=O)c2ccc(SC(F)F)cc2)CC1` in the same way.
-6.46%

Likewise for `COc1ccc(C[C@H]2CN(c3nnc(C)s3)CC[C@@H]2OC)cc1` ?
-0.42%

Try CC(CNC(=O)CCCn1cncn1)N1CCc2ccccc2C1 (stereo unspecified) next.
11.6%

Also `O=c1c(Cc2ccc(Cl)cc2Cl)c(O)ccn1CC1CC1` ?
-5.97%

Would you kindly repeat that for `COc1ncccc1CN1C[C@@H]2COC[C@]2(CNC(=O)c2ccno2)C1` ?
-15.5%

Also need Cc1nc(CNCc2ccc(OC34CCCN(CC3)C4)cc2)n[nH]1 (stereo unspecified) , thanks.
-5.4%

Please answer likewise for O=C1NCC(C(=O)Nc2ncc(Cc3ccc(F)cc3F)s2)N1 (stereo unspecified)
-3.7%

Also check `COc1cc(NC(=O)NC(C2CC2)C2CC2)ccc1N1CCOC1=O`
-18%
